biological target: trkA (Rattus norvegicus); construct: are rat pheochromocytoma cells that bear trkA; host or cells: PC12 rat pheochromocytoma cells; assay: inhibition of NGF-stimulated trk autophosphorylation (tyrosine phosphorylation) in PC12 cells, anti-phosphotyrosine Western blot; type: cell-based; conditions: 100 nM compound, NGF 50 ng/ml
readout: trk 100 nM (inhibition of phosphorylation)

1. CC12OC(CC1(O)C(=O)Nc1ccccc1)n1c3ccccc3c3c4c(c5c6ccccc6n2c5c31)CNC4=O (stereo not drawn) : -
2. COC(=O)C1(O)CC2OC1(C)n1c3ccccc3c3c4c(c5c6cc(O)ccc6n2c5c31)C(=O)NC4 (stereo not drawn) : +
3. COC(=O)C1(O)CC2OC1(C)n1c3ccccc3c3c4c(c5c6cc(C[S+]([O-])c7ncccn7)ccc6n2c5c31)C(=O)NC4 (stereo not drawn) : -
4. COC(=O)C1(O)CC2OC1(C)n1c3ccccc3c3c4c(c5c6cc(Br)ccc6n2c5c31)C(=O)NC4 (stereo not drawn) : -
5. COC(=O)C1(O)CC2OC1(C)n1c3ccccc3c3c4c(c5c6cc(CSc7nc8ccccc8[nH]7)ccc6n2c5c31)C(=O)NC4 (stereo not drawn) : +

Moving on to the next compound.
Recorded result, CCNC(=O)C1(O)CC2OC1(C)n1c3ccccc3c3c4c(c5c6ccccc6n2c5c31)C(=O)NC4 (stereo not drawn) , trk 100 nM (inhibition of phosphorylation): +

====

target: trkA (Rattus norvegicus, UniProt P35739); construct: are rat pheochromocytoma cells that bear trkA; host or cells: PC12 rat pheochromocytoma cells; test: inhibition of NGF-stimulated trk autophosphorylation (tyrosine phosphorylation) in PC12 cells, anti-phosphotyrosine Western blot; format: cell-based; details: 100 nM compound, NGF 50 ng/ml; note: key: +: Inhibited phosphorylation; -: Did not inhibit phosphorylation
Sequence (P35739 33-799): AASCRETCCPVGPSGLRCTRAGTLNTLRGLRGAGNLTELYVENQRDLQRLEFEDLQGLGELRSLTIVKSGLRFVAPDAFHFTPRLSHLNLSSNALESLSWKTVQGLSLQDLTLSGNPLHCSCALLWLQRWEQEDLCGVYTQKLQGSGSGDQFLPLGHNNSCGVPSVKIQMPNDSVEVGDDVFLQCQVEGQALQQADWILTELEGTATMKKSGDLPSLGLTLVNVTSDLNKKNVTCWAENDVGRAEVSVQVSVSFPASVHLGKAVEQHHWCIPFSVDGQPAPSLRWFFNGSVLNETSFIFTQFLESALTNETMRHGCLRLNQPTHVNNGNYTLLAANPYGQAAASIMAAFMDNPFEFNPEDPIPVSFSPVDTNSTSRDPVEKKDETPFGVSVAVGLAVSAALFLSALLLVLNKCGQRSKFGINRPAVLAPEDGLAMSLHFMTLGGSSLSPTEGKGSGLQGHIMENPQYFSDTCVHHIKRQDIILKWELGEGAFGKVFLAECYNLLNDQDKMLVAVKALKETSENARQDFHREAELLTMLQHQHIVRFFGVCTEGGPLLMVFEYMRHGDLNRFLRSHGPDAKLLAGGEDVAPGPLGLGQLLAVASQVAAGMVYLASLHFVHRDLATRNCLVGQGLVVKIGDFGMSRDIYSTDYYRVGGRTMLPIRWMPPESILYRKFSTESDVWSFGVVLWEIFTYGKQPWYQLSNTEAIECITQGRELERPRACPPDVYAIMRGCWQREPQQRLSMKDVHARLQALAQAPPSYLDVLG
readout: trk 100 nM (inhibition of phosphorylation)

Solved entries:
1. CN(C)CC1(O)CC2OC1(C)n1c3ccccc3c3c4c(c5c6ccccc6n2c5c31)C(=O)NC4 (stereo not shown) [Compound I-16] : +
2. COC(=O)C1(OC)CC2OC1(C)n1c3ccccc3c3c4c(c5c6ccccc6n2c5c31)C(=O)NC4 (stereo not shown) [Compound I-53] : +
3. CC12OC(CC1=O)n1c3ccccc3c3c4c(c5c6ccccc6n2c5c31)CNC4=O (stereo not shown) [Compound I-52] : +
4. COC(=O)C1(O)CC2OC1(C)n1c3ccccc3c3c4c(c5c6cc(C=NNC7=NCCN7)ccc6n2c5c31)C(=O)NC4 (stereo not shown) [Compound I-61] : -
5. COC(=O)C1(O)CC2OC1(C)n1c3ccccc3c3c4c(c5c6cc(C7SCCS7)ccc6n2c5c31)C(=O)NC4 (stereo not shown) [Compound I-59] : -
6. COC(=O)C1(O)CC2OC1(C)n1c3ccccc3c3c4c(c5c6cc(C=NNC(=N)N)ccc6n2c5c31)C(=O)NC4 (stereo not shown) [Compound I-73] : +

Recorded result, CC12OC(CC1(O)CSC1O[C@H](CO)[C@@H](O)[C@H](O)[C@H]1O)n1c3ccccc3c3c4c(c5c6ccccc6n2c5c31)CNC4=O (stereo partly shown) [Compound I-20] , trk 100 nM (inhibition of phosphorylation): -

====

target: trkA (Rattus norvegicus, UniProt P35739); construct: are rat pheochromocytoma cells that bear trkA; host or cells: PC12 rat pheochromocytoma cells; test: inhibition of NGF-stimulated trk autophosphorylation (tyrosine phosphorylation) in PC12 cells, anti-phosphotyrosine Western blot; format: cell-based; settings: 100 nM compound, NGF 50 ng/ml; note: key: +: Inhibited phosphorylation; -: Did not inhibit phosphorylation
readout: trk 100 nM (inhibition of phosphorylation)

Solved entries:
1. CC[S+]([O-])Cc1ccc2c(c1)c1c3c(c4c5cc(C[S+]([O-])CC)ccc5n5c4c1n2C1CC(O)(C(=O)OC)C5(C)O1)CNC3=O (centres unmarked) : -
2. C[S+]([O-])CC1(O)CC2OC1(C)n1c3ccccc3c3c4c(c5c6ccccc6n2c5c31)C(=O)NC4 (centres unmarked) : -
3. COC(=O)C1(O)CC2OC1(C)n1c3ccccc3c3c4c(c5c6cc(CSCCN(C)C)ccc6n2c5c31)C(=O)NC4 (centres unmarked) : -
4. COC(=O)C1(O)CC2OC1(C)n1c3ccccc3c3c4c(c5c6cc(C(Sc7ccccc7)Sc7ccccc7)ccc6n2c5c31)C(=O)NC4 (centres unmarked) : -
5. CCNC(=O)Nc1ccc2c(c1)c1c3c(c4c5ccccc5n5c4c1n2C1CC(O)(C(=O)OC)C5(C)O1)CNC3=O (centres unmarked) : -

Recorded result, CC12OC(CC13CNC(=O)O3)n1c3ccccc3c3c4c(c5c6ccccc6n2c5c31)CNC4=O (centres unmarked) , trk 100 nM (inhibition of phosphorylation): +

Recorded result, CC(=O)OCC1(O)CC2OC1(C)n1c3ccccc3c3c4c(c5c6ccccc6n2c5c31)C(=O)NC4 (centres unmarked) , trk 100 nM (inhibition of phosphorylation): +

Recorded result, CC12OC(CC1(O)C(=O)NCCO)n1c3ccc(Br)cc3c3c4c(c5c6cc(Br)ccc6n2c5c31)CNC4=O (centres unmarked) , trk 100 nM (inhibition of phosphorylation): -

Recorded result, CN(C)C(=O)C1(O)CC2OC1(C)n1c3ccccc3c3c4c(c5c6ccccc6n2c5c31)C(=O)NC4 (centres unmarked) , trk 100 nM (inhibition of phosphorylation): +

Hello, the source for this data is patent US5654427A, in case you need it.
